# Test system: MV-4-11 cells
# ASSAY_INFO: Inhibition of tumor cell proliferation (CellTiter-Glo)
# Type: cell-based
# PROTOCOL_CONDITIONS: Homo sapiens, MV4-11; MV-4-11 cells, 72 h, CellTiter-Glo; read-out: IC50 of inhibitory activity of tumor cell proliferation
METRIC_NAME: IC50

Observed IC50, MV-4-11 cells, O=C(C#Cc1cc2cn[nH]c2cc1F)NCc1ccc2c(c1)CN(C1CCC(=O)NC1=O)C2=O (stereo not shown) : 10 to 100 nM

Observed IC50, MV-4-11 cells, CC(=O)Oc1ccc(C#CC(=O)NCc2ccc3c(c2)CN(C2CCC(=O)NC2=O)C3=O)cc1 (stereo not shown) : 1 to 10 nM

Observed IC50, MV-4-11 cells, O=C(C#Cc1ccc(C(=O)O)cc1)NCc1ccc2c(c1)CN(C1CCC(=O)NC1=O)C2=O (stereo not shown) : > 100 nM

Observed IC50, MV-4-11 cells, COc1cccc(C#CC(=O)NCc2ccc3c(c2)CN(C2CCC(=O)NC2=O)C3=O)c1 (stereo not shown) : < 1 nM

====

Would you kindly list IC50 for each of these compounds?
# Test system: MV-4-11 cells
# ASSAY_INFO: Inhibition of tumor cell proliferation (CellTiter-Glo)
# Assay type: cell-based
# PROTOCOL_CONDITIONS: Homo sapiens, MV4-11; MV-4-11 cells, 72 h, CellTiter-Glo; read-out: IC50 of inhibitory activity of tumor cell proliferation

Just so you know, measured IC50 for O=C(C#Cc1cnccn1)NCc1ccc2c(c1)CN(C1CCC(=O)NC1=O)C2=O (stereo not shown) came out at > 0.1 µM

Just so you know, measured IC50 for O=C(O)CCC(=O)Oc1ccccc1C#CC(=O)NCc1ccc2c(c1)CN(C1CCC(=O)NC1=O)C2=O (stereo not shown) came out at 0.001 to 0.01 µM

Just so you know, measured IC50 for O=C(C#Cc1ccc(O)cc1)NCc1ccc2c(c1)CN(C1CCC(=O)NC1=O)C2=O (stereo not shown) came out at 0.01 to 0.1 µM

Just so you know, measured IC50 for O=C(C#Cc1ccc(F)cc1F)NCc1ccc2c(c1)CN(C1CCC(=O)NC1=O)C2=O (stereo not shown) came out at < 0.001 µM

Just so you know, measured IC50 for O=C(C#Cc1ccccc1)NCc1ccc2c(c1)CN(C1CCC(=O)NC1=O)C2=O (stereo not shown) came out at < 0.001 µM

Just so you know, measured IC50 for O=C(C#Cc1ccc(Cl)c(C(=O)O)c1)NCc1ccc2c(c1)CN(C1CCC(=O)NC1=O)C2=O (stereo not shown) came out at < 0.001 µM

Just so you know, measured IC50 for O=C(C#Cc1cnc(Cl)cc1Cl)NCc1ccc2c(c1)CN(C1CCC(=O)NC1=O)C2=O (stereo not shown) came out at 0.001 to 0.01 µM

Just so you know, measured IC50 for O=C(O)CCC(=O)Oc1ccc(C#CC(=O)NCc2ccc3c(c2)CN(C2CCC(=O)NC2=O)C3=O)cc1 (stereo not shown) came out at 0.01 to 0.1 µM

Just so you know, measured IC50 for O=C(C#Cc1ccc2scnc2c1)NCc1ccc2c(c1)CN(C1CCC(=O)NC1=O)C2=O (stereo not shown) came out at < 0.001 µM

Just so you know, measured IC50 for O=C(C#Cc1ccc2c(c1)OCO2)NCc1ccc2c(c1)CN(C1CCC(=O)NC1=O)C2=O (stereo not shown) came out at < 0.001 µM

Just so you know, measured IC50 for O=C(C#CC1CCCCC1)NCc1ccc2c(c1)CN(C1CCC(=O)NC1=O)C2=O (stereo not shown) came out at < 0.001 µM

Just so you know, measured IC50 for CCCC(=O)OCOC(=O)c1ccccc1C#CC(=O)NCc1ccc2c(c1)CN(C1CCC(=O)NC1=O)C2=O (stereo not shown) came out at > 0.1 µM

Just so you know, measured IC50 for O=C(C#Cc1ccccc1O)NCc1ccc2c(c1)CN(C1CCC(=O)NC1=O)C2=O (stereo not shown) came out at 0.001 to 0.01 µM

Just so you know, measured IC50 for Cc1c(O)cccc1C#CC(=O)NCc1ccc2c(c1)CN(C1CCC(=O)NC1=O)C2=O (stereo not shown) came out at 0.001 to 0.01 µM

Just so you know, measured IC50 for O=C(C#Cc1ccc2ncoc2c1)NCc1ccc2c(c1)CN(C1CCC(=O)NC1=O)C2=O (stereo not shown) came out at 0.01 to 0.1 µM

Just so you know, measured IC50 for O=C(C#CC1CC1)NCc1ccc2c(c1)CN(C1CCC(=O)NC1=O)C2=O (stereo not shown) came out at > 0.1 µM
